Read-out record for Haemophilus influenzae (H. influenzae) 49247: MIC

[
  {
    "molecule": "CCc1c(-c2ccc3c(c2)cc(CNCC2CCCC2)n3C)[nH]c(=O)c(C(=O)O)c1O.Cl [Cpd 236]",
    "MIC": "1 to 3.5 mg/L"
  },
  {
    "molecule": "CCc1c(-c2ccc3c(c2)cc(CNC(C)(C)C)n3C)[nH]c(=O)c(C(=O)O)c1O [Cpd 193]",
    "MIC": "< 1 mg/L"
  },
  {
    "molecule": "CCc1c(-c2ccc3c(c2)cc(CNCC2CCCN2CC)n3C)[nH]c(=O)c(C(=O)O)c1O.Cl.Cl (stereo not drawn) [Cpd 230]",
    "MIC": "3.5 to 12.5 mg/L"
  }
]

---

Read-out record for Haemophilus influenzae (H. influenzae) 49247: MIC

[
  {
    "compound": "CCc1c(-c2ccc3c(c2)CCN3C)[nH]c(=O)c(C(=O)O)c1O",
    "MIC": "< 1 µg/mL"
  },
  {
    "compound": "CCc1c(-c2ccc3c(c2)cc(CN2CCC(NC)C2)n3C)[nH]c(=O)c(C(=O)O)c1O (stereo not shown)",
    "MIC": "1 to 3.5 µg/mL"
  },
  {
    "compound": "CCc1c(-c2ccc3c(c2)cc(CN2C[C@H]4CC[C@@H](N)[C@H]4C2)n3C)[nH]c(=O)c(C(=O)O)c1O",
    "MIC": "1 to 3.5 µg/mL"
  },
  {
    "compound": "CCc1c(-c2ccc3c(c2)cc(CN2CCC(N)CC2)n3C)[nH]c(=O)c(C(=O)O)c1O",
    "MIC": "1 to 3.5 µg/mL"
  }
]

---

# Tested on: Haemophilus influenzae (H. influenzae) 49247
experimental_readout: MIC

[
  {
    "mol": "CCc1c(-c2ccc3c(c2)cc(CN2CCC[C@H](NC)C2)n3C)[nH]c(=O)c(C(=O)O)c1O",
    "measured_target": "Haemophilus influenzae (H. influenzae) 49247",
    "value_reported": "3.5 to 12.5 µg/mL"
  },
  {
    "mol": "CCc1c(-c2ccc3c(c2)cc(CNC2CCC2)n3C)[nH]c(=O)c(C(=O)O)c1O.Cl",
    "measured_target": "Haemophilus influenzae (H. influenzae) 49247",
    "value_reported": "< 1 µg/mL"
  },
  {
    "mol": "CCc1c(-c2ccc3c(c2)cc(CN2CCC[C@H](N)C2)n3C)[nH]c(=O)c(C(=O)O)c1O",
    "measured_target": "Haemophilus influenzae (H. influenzae) 49247",
    "value_reported": "3.5 to 12.5 µg/mL"
  }
]
